TARGET: T1, GST-FOXM1 DBD (UniProt Q08050 225-355)
T1 sequence: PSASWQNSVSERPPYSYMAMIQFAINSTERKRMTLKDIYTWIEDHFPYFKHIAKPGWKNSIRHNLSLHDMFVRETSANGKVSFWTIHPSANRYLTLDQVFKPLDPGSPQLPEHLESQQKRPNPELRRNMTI
ASSAY PROCEDURE: fluorescence polarization; EMSA and FP: 20 mM Tris-Cl, 50 mM KCl, 10% glycerol, 0.5 mM EDTA, 0.2 mM DTT, pH 7.6, 30 min on ice; EMSA 50 nM probe, FP 10 nM probe (50 nM in Fig. 1D legend)
CONDITION SET: protein: recombinant; tags: N-terminal GST (pGEX-4T-1); label: 5'-ROX (hot) or none (cold)

>  <BINDER>
TCACTTCACACCGCATCTCTACGTCCGGTTGCGCTTTCCTTT (ssDNA) [FOXM1 Apt (C1)]

>  <Kd (nM)>
64.8

$$$$
